Would you kindly list Increase for each of these compounds?
# Target Desc: Dopamine receptor (Bos taurus) (UniProt Q95136+P20288)
# Protocol: In vitro ability to enhance the binding of [3H]ADTN to dopamine receptor obtained from bovine caudate membranes at a concentration of 10E-10 M
Give just the numeric value; % need not be written.

Incoming: Return reported Increase; argument: NC(=O)CN1OC[C@H](NC(=O)C2CCCN2)C1=O (stereo partly specified)
Outgoing: 2.5

Incoming: Now consider NC(=O)CN1CC[C@H](NC(=O)C2CCCN2)C1=O (stereo partly specified) and answer again.
Outgoing: 24.4

Incoming: Now consider NC(=O)CN1C[C@H](NC(=O)C2CCCN2)C1=O (stereo partly specified) and answer again.
Outgoing: 2.5

Incoming: Now consider NC(=O)CN1CCCC[C@@H](NC(=O)C2CCCN2)C1=O (stereo partly specified) and answer again.
Outgoing: 15

Incoming: Now consider NC(=O)CN1CCC[C@@H](NC(=O)C2CCCN2)C1=O (stereo partly specified) and answer again.
Outgoing: 3

Incoming: Now consider NC(=O)CN1C(=O)C[C@H](NC(=O)C2CCCN2)C1=O (stereo partly specified) and answer again.
Outgoing: 3.3

Cited source for all entries: ChEMBL document CHEMBL1126940
